Parameter Target Concentration 100 (phage screen NGS readout): see the listing below.
Target: beta-catenin (Homo sapiens)
Construct: made in house; host or cells: E. coli BL21 (DE3) pLysS
Sequence (P35222 134-665): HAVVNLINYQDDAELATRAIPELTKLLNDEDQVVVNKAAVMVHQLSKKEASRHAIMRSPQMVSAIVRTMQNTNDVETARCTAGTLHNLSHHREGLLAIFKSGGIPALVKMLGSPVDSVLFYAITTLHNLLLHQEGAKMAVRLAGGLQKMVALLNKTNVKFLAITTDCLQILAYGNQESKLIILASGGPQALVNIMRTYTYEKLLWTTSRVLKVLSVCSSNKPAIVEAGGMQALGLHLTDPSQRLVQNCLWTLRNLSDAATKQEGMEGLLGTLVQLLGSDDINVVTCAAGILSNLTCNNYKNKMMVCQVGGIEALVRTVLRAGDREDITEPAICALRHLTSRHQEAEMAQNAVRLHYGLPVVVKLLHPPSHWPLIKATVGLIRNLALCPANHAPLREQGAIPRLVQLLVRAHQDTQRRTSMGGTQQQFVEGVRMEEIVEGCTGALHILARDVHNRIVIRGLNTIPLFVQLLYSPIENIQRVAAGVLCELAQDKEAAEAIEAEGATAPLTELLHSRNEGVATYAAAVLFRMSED
Experiment: Phage Library Screening with NGS, beta-catenin
Format: binding
Conditions: beta-catenin target concentration 100; no competitor
I only need the number, thanks.

Task: Quick one: Target Concentration 100 (phage screen NGS readout) for DPAVVECYEAAYTCQYI ?
Result: 0

Task: Please do the same for DPAWSDCIWAAEHCQLI as well.
Result: 5
